Test: Pharmacokinetics and metabolism after iv and po administration
Format: in vivo
Conditions: male, C57/BL6, mouse, plasma, iv, 5 mg/kg, 3 h after iv 5 mg/kg artemiside 5; read-out: Mean iv circulating concentration
measure: concentration at 3 h (nM)

• C[C@H]1[C@H](N2CC[S+]([O-])CC2)O[C@@H]2O[C@@]3(C)CC[C@H]4[C@H](C)CC[C@@H]1[C@@]24OO3 = 66
• C[C@H]1[C@H](N2CCSCC2)O[C@@H]2O[C@@]3(C)CC[C@H]4[C@H](C)CC[C@@H]1[C@@]24OO3 [Artemiside 5, Artemiside] = 180
• C[C@H]1[C@H](N2CCS(=O)(=O)CC2)O[C@@H]2O[C@@]3(C)CC[C@H]4[C@H](C)CC[C@@H]1[C@@]24OO3 = 12
